Overview of reported Enzyme Compatibility Value ECV across a group of compounds:
- System: Termamyl, Duramyl and Natalase (alpha amylases)
- assay: Organic Catalyst/Enzyme Compatibility Test, average over the three amylases
- Assay type: biochemical
- condition_label: ECV=(ECVter+ECVdur+ECVnat)/3; peracetic acid 5.0 ppm; organic catalyst 0.5 ppm
- Method: Organic Catalyst/Enzyme Compatibility Test The test described below uses an alpha amylase activity assay to measure the impact of organic catalysts on the enzyme. Equipment. […] • a.) TRIS Assay Buffer. […] Mix 6 μl of filtered sample with 250 μL of amylase reagent in a cuvette and place the cuvette in a UV/VIS spectrophotometer and monitor change in absorbance at 415 nm. Determine length of time (tE) to the nearest second required to obtain an absorbance reading of 1.0 for each enzyme. […]
// response body must contain only the number

Recorded results for 4 compounds are shown here.
CCCCC(CC)COCC(C[N+]1=Cc2ccccc2CC1)OS(=O)(=O)[O-] (centres unmarked) [Entry 2, reference compound]: 67
CC(C)(C)OCC(C[N+]1=Cc2ccccc2CC1)OS(=O)(=O)[O-] (centres unmarked) [Entry 1, reference compound]: 65
O=S(=O)([O-])OCC[N+]1=Cc2ccccc2C(Cc2ccccc2)(Cc2ccccc2)C1: 101
O=S(=O)([O-])CCC[N+]1=Cc2ccccc2C(Cc2ccccc2)(Cc2ccccc2)C1: 102

Please find the next compound below.
Q. What does the data say about its Enzyme Compatibility Value ECV? Entry: "Cc1ccc(CC2(Cc3ccc(C)cc3)C[N+](CCCS(=O)(=O)[O-])=Cc3ccccc32)cc1"
A. 100

---

Overview of reported Enzyme Compatibility Value ECVdur across a group of compounds:
- Tested on: Duramyl (alpha amylase)
- assay: Organic Catalyst/Enzyme Compatibility Test (alpha amylase activity assay), Duramyl
- Type: biochemical
- condition_label: (Ac/Ab)x100; peracetic acid 5.0 ppm; organic catalyst 0.5 ppm; 40° C.; sample at 7 min 45 s
// response body must contain only the number

CC(C)(C)OCC(C[N+]1=Cc2ccccc2CC1)OS(=O)(=O)[O-] (centres unmarked) [Entry 1, reference compound]: 86
O=S(=O)([O-])CCC[N+]1=Cc2ccccc2C(Cc2ccccc2)(Cc2ccccc2)C1 [Entry 4]: 99
O=S(=O)([O-])OCC[N+]1=Cc2ccccc2C(Cc2ccccc2)(Cc2ccccc2)C1 [Entry 3]: 100
Cc1ccc(CC2(Cc3ccc(C)cc3)C[N+](CCCS(=O)(=O)[O-])=Cc3ccccc32)cc1 [Entry 5]: 99

Q. What does the data say about its Enzyme Compatibility Value ECVdur? Entry: CCCCC(CC)COCC(C[N+]1=Cc2ccccc2CC1)OS(=O)(=O)[O-] (centres unmarked) [Entry 2, reference compound]
A. 90

---

- target_entity: Termamyl (alpha amylase) (Bacillus licheniformis, UniProt P06278)
- Construct: purchased Novozymes, Denmark
- Sequence (P06278 30-512): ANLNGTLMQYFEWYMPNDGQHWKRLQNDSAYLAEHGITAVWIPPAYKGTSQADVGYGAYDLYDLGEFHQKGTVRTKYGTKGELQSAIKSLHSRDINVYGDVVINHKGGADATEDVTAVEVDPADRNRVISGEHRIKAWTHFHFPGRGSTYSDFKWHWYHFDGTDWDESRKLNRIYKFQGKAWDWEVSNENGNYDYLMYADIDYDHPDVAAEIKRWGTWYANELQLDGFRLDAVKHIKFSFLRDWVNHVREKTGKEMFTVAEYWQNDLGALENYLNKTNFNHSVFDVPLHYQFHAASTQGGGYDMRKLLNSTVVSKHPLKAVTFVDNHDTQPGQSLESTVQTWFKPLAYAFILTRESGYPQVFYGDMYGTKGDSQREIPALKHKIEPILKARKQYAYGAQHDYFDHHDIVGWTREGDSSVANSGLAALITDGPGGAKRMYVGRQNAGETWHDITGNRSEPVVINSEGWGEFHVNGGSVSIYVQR
- assay: Organic Catalyst/Enzyme Compatibility Test (alpha amylase activity assay), Termamyl
- Format: biochemical
- condition_label: (Ac/Ab)x100; peracetic acid 5.0 ppm; organic catalyst 0.5 ppm; 40° C.; sample at 7 min 45 s
measured_quantity: Enzyme Compatibility Value ECVter
// response body must contain only the number

Recorded results for 4 molecules are shown here.
O=S(=O)([O-])OCC[N+]1=Cc2ccccc2C(Cc2ccccc2)(Cc2ccccc2)C1 [Entry 3]: 101
CCCCC(CC)COCC(C[N+]1=Cc2ccccc2CC1)OS(=O)(=O)[O-] (centres unmarked) [Entry 2, reference compound]: 54
CC(C)(C)OCC(C[N+]1=Cc2ccccc2CC1)OS(=O)(=O)[O-] (centres unmarked) [Entry 1, reference compound]: 51
O=S(=O)([O-])CCC[N+]1=Cc2ccccc2C(Cc2ccccc2)(Cc2ccccc2)C1 [Entry 4]: 102

Please find the next molecule below.
Q. What does the data say about its Enzyme Compatibility Value ECVter? Entry: Cc1ccc(CC2(Cc3ccc(C)cc3)C[N+](CCCS(=O)(=O)[O-])=Cc3ccccc32)cc1 [Entry 5]
A. 103

Entry source: patent US8426596B2
